- Test System: T1, integrin αvβ3, purified from human placenta (human, UniProt P06756 31-1048; P05106 27-788)
- T1 construct: mature; Native heterodimer, immobilized on ELISA plates or on the BIAcore chip; biotinylated in capture lift and capture ELISA screens; also called αvβ3 receptor; vitronectin receptor
- T1 sequence (P06756 31-1048, form in doubt, chain 1 of 2): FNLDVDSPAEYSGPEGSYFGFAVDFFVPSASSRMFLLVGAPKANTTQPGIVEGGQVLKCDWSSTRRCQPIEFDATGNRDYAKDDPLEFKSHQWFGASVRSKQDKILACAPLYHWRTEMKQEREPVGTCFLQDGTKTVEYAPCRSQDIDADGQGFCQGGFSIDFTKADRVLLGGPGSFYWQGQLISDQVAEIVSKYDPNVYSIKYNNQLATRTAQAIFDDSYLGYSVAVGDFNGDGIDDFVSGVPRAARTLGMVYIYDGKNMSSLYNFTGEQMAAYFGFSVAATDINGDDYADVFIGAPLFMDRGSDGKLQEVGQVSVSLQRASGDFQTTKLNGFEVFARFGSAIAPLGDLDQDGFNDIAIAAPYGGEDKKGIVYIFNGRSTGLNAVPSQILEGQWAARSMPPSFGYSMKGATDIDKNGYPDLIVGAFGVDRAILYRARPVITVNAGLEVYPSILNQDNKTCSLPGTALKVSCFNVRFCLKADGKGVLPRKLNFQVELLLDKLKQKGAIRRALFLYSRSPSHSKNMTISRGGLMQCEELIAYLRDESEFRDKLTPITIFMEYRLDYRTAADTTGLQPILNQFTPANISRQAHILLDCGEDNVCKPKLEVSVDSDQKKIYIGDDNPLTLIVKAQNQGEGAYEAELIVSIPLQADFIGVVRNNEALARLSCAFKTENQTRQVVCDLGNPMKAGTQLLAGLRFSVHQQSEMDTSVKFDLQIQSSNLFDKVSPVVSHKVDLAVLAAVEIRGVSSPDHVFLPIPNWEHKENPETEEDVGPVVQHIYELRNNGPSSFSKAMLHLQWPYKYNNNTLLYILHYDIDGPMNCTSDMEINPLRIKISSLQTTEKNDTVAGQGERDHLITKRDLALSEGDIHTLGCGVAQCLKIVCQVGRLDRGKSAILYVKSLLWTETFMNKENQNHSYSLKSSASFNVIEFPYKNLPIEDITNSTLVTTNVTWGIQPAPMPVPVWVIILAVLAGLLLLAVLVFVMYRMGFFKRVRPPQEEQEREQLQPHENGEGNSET
- T1 sequence (P05106 27-788, form in doubt, chain 2 of 2): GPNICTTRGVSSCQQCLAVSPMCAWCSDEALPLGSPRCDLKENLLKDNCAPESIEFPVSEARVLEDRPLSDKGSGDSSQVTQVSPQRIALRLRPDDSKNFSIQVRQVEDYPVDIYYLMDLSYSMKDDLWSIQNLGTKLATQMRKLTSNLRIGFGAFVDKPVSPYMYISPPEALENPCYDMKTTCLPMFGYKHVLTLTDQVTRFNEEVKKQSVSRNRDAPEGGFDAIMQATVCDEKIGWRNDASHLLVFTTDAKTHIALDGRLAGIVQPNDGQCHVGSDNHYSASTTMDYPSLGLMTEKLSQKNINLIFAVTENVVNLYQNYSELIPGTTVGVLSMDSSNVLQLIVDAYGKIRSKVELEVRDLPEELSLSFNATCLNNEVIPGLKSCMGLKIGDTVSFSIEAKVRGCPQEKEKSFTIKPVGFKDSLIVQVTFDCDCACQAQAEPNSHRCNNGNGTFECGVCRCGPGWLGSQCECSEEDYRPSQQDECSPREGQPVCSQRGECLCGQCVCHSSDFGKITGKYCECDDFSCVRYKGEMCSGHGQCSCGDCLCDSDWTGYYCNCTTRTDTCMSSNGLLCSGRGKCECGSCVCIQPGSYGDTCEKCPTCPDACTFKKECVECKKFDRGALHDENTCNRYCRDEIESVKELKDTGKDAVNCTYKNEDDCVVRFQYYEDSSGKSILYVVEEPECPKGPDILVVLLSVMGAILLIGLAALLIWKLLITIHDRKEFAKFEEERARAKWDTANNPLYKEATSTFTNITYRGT
- Run Description: SPR (BIAcore), purified Fab over immobilized αvβ3
The threshold is 200000 M⁻¹ s⁻¹. Values of kon beneath it are tagged true (1); values meeting or exceeding it are tagged false (0).

- Binder: "LM609 grafted antibody combinatorial clone 6D1 (Fab, V domains shown, Fab) VH: QVQLVESGGGVVQPGRSLRLSCAASGFTFSSYDMSWVRQAPGKGLEWVAKVSSGGGSTYYPDTVQGRFTISRDNSKNTLYLQMNSLRAEDTAVYYCARHNYGSFYSWGQGTTVTVSS VL: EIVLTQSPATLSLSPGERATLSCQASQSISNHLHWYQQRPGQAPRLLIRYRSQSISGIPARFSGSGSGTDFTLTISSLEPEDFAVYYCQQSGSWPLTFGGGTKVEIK"
  Cat: "false (0)"
- Binder: "LM609 grafted antibody combinatorial clone 2G4 (Fab, V domains shown, Fab) VH: QVQLVESGGGVVQPGRSLRLSCAASGFTFSSYDMSWVRQAPGKGLEWVAKVSSGGGSTYYLDTVQGRFTISRDNSKNTLYLQMNSLRAEDTAVYYCARHNYGSFASWGQGTTVTVSS VL: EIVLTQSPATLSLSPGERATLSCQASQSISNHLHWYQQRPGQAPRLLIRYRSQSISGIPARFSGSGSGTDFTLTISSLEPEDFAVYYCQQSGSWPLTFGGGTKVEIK"
  Cat: "false (0)"
- Binder: "LM609 grafted antibody combinatorial clone C176 (Fab, V domains shown, Fab) VH: QVQLVESGGGVVQPGRSLRLSCAASGFTFSSYDMSWVRQAPGKGLEWVAKVSSGGGSTYYPDTVQGRFTISRDNSKNTLYLQMNSLRAEDTAVYYCARHNYGSFATWGQGTTVTVSS VL: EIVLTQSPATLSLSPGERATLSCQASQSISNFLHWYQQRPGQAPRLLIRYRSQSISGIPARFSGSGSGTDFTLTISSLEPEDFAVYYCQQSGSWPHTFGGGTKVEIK"
  Cat: "false (0)"
- Binder: "LM609 grafted antibody Fab (Fab, V domains shown, Fab expressed from M13 phage vector, human kappa chain, peptide tag on the carboxyl-terminus of the heavy chain; also called LM609 grafted Fab; parent LM609 grafted antibody) VH: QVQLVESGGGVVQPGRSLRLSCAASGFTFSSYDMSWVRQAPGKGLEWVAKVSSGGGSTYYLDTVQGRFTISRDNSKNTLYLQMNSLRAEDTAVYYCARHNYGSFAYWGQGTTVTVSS VL: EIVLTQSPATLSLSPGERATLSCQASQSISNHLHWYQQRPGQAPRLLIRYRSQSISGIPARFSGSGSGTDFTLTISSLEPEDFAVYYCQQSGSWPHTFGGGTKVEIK"
  Cat: "true (1)"
